Each item that follows carries a reported Kd.
Target: T1, TNFR2-His (Sino Biological, 10417-H08H, NP_001057.1 Met1-Asp257, with multi-histidine tag expressed on … (human, UniProt P20333 23-257))
T1 construct: range 1-257; Bought protein; also called recombinant human TNFR2 protein; TNFR2-His antigen; not shown: C-terminal multi-histidine tag
T1 sequence (looked up): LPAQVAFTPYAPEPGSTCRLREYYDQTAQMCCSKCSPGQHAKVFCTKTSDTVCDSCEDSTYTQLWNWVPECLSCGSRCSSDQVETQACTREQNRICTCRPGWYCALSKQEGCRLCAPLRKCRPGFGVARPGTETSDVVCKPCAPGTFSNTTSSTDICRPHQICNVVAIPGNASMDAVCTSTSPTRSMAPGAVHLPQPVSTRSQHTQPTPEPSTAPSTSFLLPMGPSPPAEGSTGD
Assay: BLI, antibody captured on AHC probe, TNFR2-His in solution
Your answer should be a plain number; it is taken to be in nM.

binder	result.type	readout.units	reported.measurement
11G2huVH5 + huVL2(P07270) (antibody, V domains shown, Humanized 11G2) VH: QVQLVQSGAEVKKPGASVKVSCKASGYTFITYDINWVRQATGQGLEWIGWIYPRDGNTQYAQKFQGRVTMTRNTSISTAYMELSSLRSEDTAVYYCARGDRDYGYFDVWGQGTTVTVSS VL: DIQMTQSPSSLSASVGDRVTITCRASQDISNYLNWYQQKPGKAPKLLIYFKSKLHSGVPSRFSGSGSGTDFTLTISSLQPEDFATYYCQQGNTLPLTFGGGTKLEIK	Kd	nM	8.13

// Kd value for 11G2huVH2 + huVL1(P07263) (antibody, V domains shown, Humanized 11G2) VH: QVQLVQSGAEVKKPGASVKVSCKASGYTFITYDINWVRQAPGQGLEWIGWIYPRDGNTQFNENFKGRVTMTTDTSTSTAYMELRSLRSDDTAVYYCARGDRDYGYFDVWGQGTTVTVSS VL: DIQMTPSTSSLSASVGDRVTITCRASQDISNYLNWYQQKPGKAVKLLIYFKSKLHSGVPSRFSGSGSGTDFTLTISSLQPEDFATYYCQQGNTLPLTFGGGTKLELK : 5.96

The recorded Kd for entry 11G2huVH1 + huVL3(P07271) (antibody, V domains shown, Humanized 11G2) VH: QVQLVQSGAEVKKPGASVKLSCKASGYTFITYDINWVRQAPGQGLEWIGWIYPRDGNTQFNENFKGKATMTVDESTSTAYMEVRSLRSDDTAVYYCARGDRDYGYFDVWGQGTTVTVSS VL: DIQMTQSPSSLSASVGDRVTITCQASQDISNYLNWYQQKPGKAPKLLIYFKSKLETGVPSRFSGSGSGTDFTFTISSLQPEDIATYYCQQGNTLPLTFGGGTKLEIK equals 8.4
